// reported t1/2 for each item listed
Target: HLA-A*0101 (human)
Assay: iTopia off-rate
observable: t1/2

> print(dat)
                               binder  readout.value
1  EIDEQRTKY [cdr2 439-447 EIDEQRTKY]           1.26
2  DTQYSALKV [cdr2 350-358 DTQYSALKV]            0.4
3  SFACLKELY [cdr2 157-165 SFACLKELY]           0.97
4  LLEEMFLTV [cdr2 290-298 LLEEMFLTV]           0.27
5  SSPTTPPEY [cdr2 414-422 SSPTTPPEY]           0.96
